experiment summary: Human HepG2 cell viability assay in 384 well format
Format: toxicity, cell-based
Design: dose 125 nL, time 70.5 hour; concentration not given beside the values
assay setup: HepG2 cells, read-out: Inhibition
measured metric: cytotoxicity at 70.5 h (%)
Enter your answer as a number in %; do not include the unit.

# example entries with known answers
# molecule, unit, observed
data = [
    ("Cn1ccnc1CN1CC[C@H]2CO[C@H](CNc3ncccn3)[C@H]2C1", "%", -5.82),
    ("CCC(Nc1nc(C(C)C)nc2c1cnn2C)c1ccncc1 (stereo unspecified)", "%", -7.7),
    ("CN(CCn1cccn1)S(=O)(=O)c1cccc(Cl)c1C#N", "%", -7.08),
    ("O=C(C1CC2(CCNCC2)CN1)N1CCN(c2cccc(Cl)c2Cl)CC1 (stereo unspecified)", "%", -1.58),
    ("COCC1CC2(CCN(Cc3ccncc3)CC2)CN1C(C)C (stereo unspecified)", "%", -7.56),
]

**Query** Form field: reported cytotoxicity at 70.5 h of COCCN1CCC(CN(CC2CCCO2)C(=O)CCNC(C)=O)CC1 (stereo unspecified)
**Result** -3.63

**Query** Quick one: cytotoxicity at 70.5 h for CC(C(=O)N1CCCCC1)n1nc(-c2cccs2)cc(N)c1=O (stereo unspecified) ?
**Result** 14.9

**Query** Report cytotoxicity at 70.5 h for CN(c1cccnc1N1CCCC1)S(=O)(=O)c1cnn(C)c1 please.
**Result** 5.43

**Query** Which cytotoxicity at 70.5 h value belongs to CCOCCCNC(=O)c1cc(C(C)C)nc(N2CCCCCC2)n1 ?
**Result** 26.5

**Query** I'd like to know its cytotoxicity at 70.5 h. The molecule in question is COc1ncc(C(F)(F)F)c(C(=O)O)c1Cl
**Result** 24.8

**Query** What does the record list as cytotoxicity at 70.5 h for CN(C)C(=O)C1CN(Cc2ccc(C#N)cc2)c2ccccc2O1 (stereo unspecified) ?
**Result** 4.19

Source: ChEMBL document CHEMBL3507680
